Measured melting point by item

Below are worked cases with known answers.
>  <Compound>
CC12CC(O)C(O)CC1CCC1C2CCC2(C)C1CCC2(C)O (stereo not drawn) [Compound 4, 17α-Methyl-5α-androstan-2α,3β-17β-triol]

>  <melting point>
124 to 125 °C

$$$$
>  <Compound>
C[C@]12C=C(CO)C(=O)C=C1CC[C@@H]1[C@@H]2CC[C@@]2(C)[C@H]1CC[C@]2(C)O [Compound 5]

>  <melting point>
163 to 164 °C

$$$$
>  <Compound>
C[C@]12C[C@@H](CO)C(=O)C[C@@H]1CC[C@@H]1[C@@H]2CC[C@@]2(C)[C@H]1CC[C@]2(C)O [Compound 6]

>  <melting point>
197 to 199 °C

$$$$

Ask: Please look up its melting point: C[C@]12C[C@@H](CO)[C@H](O)C[C@@H]1CC[C@@H]1[C@@H]2CC[C@@]2(C)[C@H]1CC[C@]2(C)O [Compound 7]
Result: 279 to 281 °C
